- assay comment: Quantitative plasma stability Method #3 (LC-MS, 95% plasma), rat plasma
- Format: in vitro ADME
- condition context: rat, plasma; method #3; read-out: half-life in rat plasma (t1/2) (converted)
Numbered stars: 1 amine (or outer) side, 2 acyl side, 3 side chain; on linkers, the order of the positions; unused ones are H or OH. Bridge positions count the residues as written; N and C are the ends. Peptide text beside a SMILES is read from it. TBMB = c1c(C[*:1])cc(C[*:3])cc1C[*:2]
quantity name: half-life at 5 uM (h)
Numbers only, in h.

- molecule: "CC(=O)N[C@H]1CSCc2cc3cc(c2)CSC[C@H](NC(=O)[C@H](CCCNC(=N)N)NC(=O)[C@H](C)NC(=O)[C@@H]2CCCN2C(=O)[C@H](Cc2c[nH]c4ccccc24)NC(=O)[C@H](CO)NC1=O)C(=O)N[C@@H](CC(C)C)C(=O)N[C@@H](Cc1c[nH]cn1)C(=O)N[C@@H](CCC(N)=O)C(=O)N[C@@H](CC(=O)O)C(=O)N[C@@H](CC(C)C)C(=O)N[C@H](C(N)=O)CSC3"
  unit annotation: "h"
  recorded measurement: 2.3

Next:
Q: Find the recorded half-life at 5 uM belonging to CC(=O)N[C@H]1CSCc2cc3cc(c2)CSC[C@H](NC(=O)[C@H](CCCNC(=N)N)NC(=O)[C@H](Cc2ccc(O)cc2)NC(=O)[C@@H]2CCCN2C(=O)[C@H](Cc2ccccc2)NC(=O)[C@H](CO)NC1=O)C(=O)N[C@@H](CC(C)C)C(=O)N[C@@H](Cc1c[nH]cn1)C(=O)N[C@@H](CCC(N)=O)C(=O)N[C@@H](CC(=O)O)C(=O)N[C@@H](CC(C)C)C(=O)N[C@H](C(N)=O)CSC3 [Ac-(06-34-18) Phe2 Tyr4] (Ac-CSFPYRCLHQDLC-NH2; linker 1-7-13 via TBMB) and report it.
A: 0.9

---

- study target: human plasma Kallikrein (Homo sapiens, UniProt P03952)
- Construct: purchased Stratech, UK
- Sequence (P03952 20-638): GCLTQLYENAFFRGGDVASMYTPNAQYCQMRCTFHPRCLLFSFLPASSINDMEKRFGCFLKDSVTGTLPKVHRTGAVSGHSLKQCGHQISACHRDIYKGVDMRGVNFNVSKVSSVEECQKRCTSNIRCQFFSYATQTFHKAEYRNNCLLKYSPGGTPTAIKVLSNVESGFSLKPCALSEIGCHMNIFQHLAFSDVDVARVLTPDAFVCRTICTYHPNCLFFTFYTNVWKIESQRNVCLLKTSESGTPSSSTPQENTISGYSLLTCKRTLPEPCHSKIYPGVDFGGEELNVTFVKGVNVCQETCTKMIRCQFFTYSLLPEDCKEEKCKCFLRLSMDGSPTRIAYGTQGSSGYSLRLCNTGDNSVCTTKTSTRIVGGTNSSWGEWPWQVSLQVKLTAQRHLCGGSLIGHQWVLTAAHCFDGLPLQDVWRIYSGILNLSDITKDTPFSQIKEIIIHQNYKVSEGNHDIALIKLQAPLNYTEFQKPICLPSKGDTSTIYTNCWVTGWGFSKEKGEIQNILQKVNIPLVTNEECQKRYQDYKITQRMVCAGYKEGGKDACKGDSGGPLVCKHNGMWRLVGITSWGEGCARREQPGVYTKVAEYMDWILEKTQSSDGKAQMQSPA
- assay comment: Functional enzyme inhibition assay with fluorogenic substrate Z-PheArg-AMC, human plasma Kallikrein
- Format: biochemical
- condition context: Table 24a; residue 6 modification in the context of Ac-(06-34-18) Phe2 Tyr4; read-out: Ki (nM) Ac-(06-34-18) Phe2 Tyr4
Numbered stars: 1 amine (or outer) side, 2 acyl side, 3 side chain; on linkers, the order of the positions; unused ones are H or OH. Bridge positions count the residues as written; N and C are the ends. Square brackets hold non-standard residues; d marks the D form. Peptide text beside a SMILES is read from it. TBMB = c1c(C[*:1])cc(C[*:3])cc1C[*:2]; Chg = N[C@H](C(=O)O)C1CCCCC1; Phg = N[C@H](C(=O)O)c1ccccc1
quantity name: Ki (nM)
Numbers only, in nM.

As a guide, the following entries are already answered.
- compound: "CC[C@H](C)[C@@H]1NC(=O)[C@@H]2CSCc3cc(cc(c3)CSC[C@H](NC(C)=O)C(=O)N[C@@H](CO)C(=O)N[C@@H](Cc3ccccc3)C(=O)N3CCC[C@H]3C(=O)N[C@@H](Cc3ccc(O)cc3)C(=O)N[C@@H](CCCNC(=N)N)C(=O)N2)CSC[C@@H](C(N)=O)NC(=O)[C@H](CC(C)C)NC(=O)[C@H](CC(=O)O)NC(=O)[C@H](CCC(N)=O)NC(=O)[C@H](Cc2c[nH]cn2)NC1=O [Ac-(06-34-18) Phe2 Tyr4 Ile6] (Ac-CSFPYRCIHQDLC-NH2; linker 1-7-13 via TBMB)"
  recorded measurement: 1.46
- compound: "CC(=O)N[C@H]1CSCc2cc3cc(c2)CSC[C@H](NC(=O)[C@H](CCCNC(=N)N)NC(=O)[C@H](Cc2ccc(O)cc2)NC(=O)[C@@H]2CCCN2C(=O)[C@H](Cc2ccccc2)NC(=O)[C@H](CO)NC1=O)C(=O)N[C@@H](c1ccccc1)C(=O)N[C@@H](Cc1c[nH]cn1)C(=O)N[C@@H](CCC(N)=O)C(=O)N[C@@H](CC(=O)O)C(=O)N[C@@H](CC(C)C)C(=O)N[C@H](C(N)=O)CSC3 [Ac-(06-34-18) Phe2 Tyr4 Phg6] (Ac-CSFPYRC[Phg]HQDLC-NH2; linker 1-7-13 via TBMB)"
  recorded measurement: 0.3

Q: # returns recorded Ki (system: human plasma Kallikrein (Homo sapiens, UniProt P03952)) for CC(=O)N[C@H]1CSCc2cc3cc(c2)CSC[C@H](NC(=O)[C@H](CCCNC(=N)N)NC(=O)[C@H](Cc2ccc(O)cc2)NC(=O)[C@@H]2CCCN2C(=O)[C@H](Cc2ccccc2)NC(=O)[C@H](CO)NC1=O)C(=O)N[C@@H](C1CCCCC1)C(=O)N[C@@H](Cc1c[nH]cn1)C(=O)N[C@@H](CCC(N)=O)C(=O)N[C@@H](CC(=O)O)C(=O)N[C@@H](CC(C)C)C(=O)N[C@H](C(N)=O)CSC3 [Ac-(06-34-18) Phe2 Tyr4 Chg6] (Ac-CSFPYRC[Chg]HQDLC-NH2; linker 1-7-13 via TBMB)
A: 0.5
